Data origin: PubChem BioAssay AID1159580

// normalized growth lookup, one value per entry
testName: chemical genetic growth profiling, strain panel (AID 1159580);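 note: tested at 20 µM; growth read once vehicle control cultures reached saturation at 30 °C; 1 = growth at the plate median or of vehicle wells; lower values mean less growth of the strain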
testSettings: S. cerevisiae deletion strains, growth OD, locus YDL185W, strain tfp1, active compounds read low
In all, about 5,500 compounds went through this assay and about 2,000 (36%) were called active. Not shown: some 18% with an inconclusive outcome. The list shows a part of the results.

{"compound": "CC[C@H](/C=C/C(C)C1CCC2C3CCC4=CC(=O)CC[C@]4(C)C3CC[C@]12C)C(C)C (stereo partly specified)", "normalized growth": 1.01}
{"compound": "CCOC(=O)C(Cc1ccc(O)cc1)NC(C)=O (stereo unspecified)", "normalized growth": 0.993}
{"compound": "CCC(C)C(=O)O[C@H]1[C@H](O)C2C(CN3CC(C)CCC3[C@@]2(C)O)C2C[C@]34O[C@]5(O)C(OC(=O)C(C)(O)C(C)O)CC[C@@]3(C)C5C(OC(C)=O)[C@@H](OC(C)=O)C4[C@@]21O (stereo partly specified)", "normalized growth": 0.999}
{"compound": "CC(=O)[C@H]1CCC2C3CCC4=CC(=O)CC[C@]4(C)C3CC[C@@]21C (stereo partly specified)", "normalized growth": 0.923}
{"compound": "c1ccc(N=Nc2ccccc2)cc1", "normalized growth": 1.01}
{"compound": "CCC(=O)O[C@H]1CCC2C3CCC4=CC(=O)CC[C@]4(C)C3CC[C@@]21C (stereo partly specified)", "normalized growth": 1}

* * *

testName: chemical genetic growth profiling, strain panel (AID 1159580);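 note: tested at 20 µM; growth read once vehicle control cultures reached saturation at 30 °C; 1 = growth at the plate median or of vehicle wells; lower values mean less growth of the strain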
testSettings: S. cerevisiae deletion strains, growth OD, locus YML032C, strain rad52, active compounds read low
The whole screen tested about 5,500 compounds, of which about 2,000 (36%) were called active. Roughly 18% stayed inconclusive and do not appear here. This is one part of the list.
Listed here are compounds together with their documented normalized growth.

{"compound": "CC(C)(O)[C@@H]1[C@H]2OC(=O)[C@@H]1[C@]1(O)C[C@H]3O[C@]34C(=O)O[C@H]2[C@]14C", "normalized growth": 1.02}
{"compound": "CC1=C(CC(=O)O)c2cc(F)ccc2/C1=C\\c1ccc(S(C)=O)cc1 (stereo unspecified)", "normalized growth": 1.03}
{"compound": "CCOC(=O)c1c(C)cc(O)c(C)c1O", "normalized growth": 0.917}
{"compound": "O=C(CC[N+](=O)[O-])OC[C@H]1O[C@@H](O)[C@H](OC(=O)CC[N+](=O)[O-])[C@@H](OC(=O)CC[N+](=O)[O-])[C@@H]1OC(=O)CC[N+](=O)[O-]", "normalized growth": 0.999}
{"compound": "CC(NCCc1ccc(O)cc1)C(O)c1ccc(O)cc1 (stereo unspecified)", "normalized growth": 0.976}
{"compound": "CCOC(=O)c1c(C)cc(O)c(C=O)c1O", "normalized growth": 0.137}
{"compound": "CCCCCCCCNC(C)C(O)c1ccc(SC(C)C)cc1 (stereo unspecified)", "normalized growth": 0.0627}
{"compound": "Cc1cc(O)c(C)c(O)c1C(=O)O", "normalized growth": 1.03}
{"compound": "O=C1C=CC(=C(c2ccc(O)cc2)c2ccc(O)cc2)C=C1", "normalized growth": 0.98}
{"compound": "CC(=O)OCC(=O)[C@@]1(O)CCC2C3CCC4=CC(=O)CC[C@]4(C)C3C(=O)C[C@@]21C (stereo partly specified)", "normalized growth": 1.04}
{"compound": "Cc1cc(O)c(C=O)c(O)c1C(=O)O", "normalized growth": 0.985}
{"compound": "COCCc1ccc(OCC(O)CNC(C)C)cc1 (stereo unspecified)", "normalized growth": 1.03}
{"compound": "CC(=O)OCC(=O)[C@H]1CCC2C3CCC4=CC(=O)CC[C@]4(C)C3CC[C@@]21C (stereo partly specified)", "normalized growth": 0.896}
{"compound": "CC(CCc1ccccc1)NC(C)C(O)c1ccc(O)cc1 (stereo unspecified)", "normalized growth": 1}
{"compound": "CN(C)c1ccc(C(=C2C=CC(=[N+](C)C)C=C2)c2ccc(N(C)C)cc2)cc1", "normalized growth": 0.583}
{"compound": "CO[C@H]1[C@H](O)[C@H](O[C@H]2CC[C@]3(C)C4CC[C@]5(C)C(C6=CC(=O)OC6)CC[C@]5(O)C4CC[C@@H]3C2)O[C@@H](C)[C@@H]1O (stereo partly specified)", "normalized growth": 1}
{"compound": "COc1cc2c(cc1OC)Cc1cc(OC)c(OC)cc1Cc1cc(OC)c(OC)cc1C2", "normalized growth": 1.01}
{"compound": "COP(=O)(OC)OC=C(Cl)Cl", "normalized growth": 0.978}
{"compound": "CCN(CC)CCNC(=O)c1cc(Br)c(N)cc1OC", "normalized growth": 0.968}
{"compound": "CCOC(=O)[C@H](CCc1ccccc1)N[C@H]1CCc2ccccc2N(CC(=O)O)C1=O", "normalized growth": 0.984}
{"compound": "C=C(C)[C@@H]1[C@H]2OC(=O)[C@@H]1[C@]1(O)C[C@H]3O[C@]34C(=O)O[C@H]2[C@]14C", "normalized growth": 1.02}

* * *

testName: chemical genetic growth profiling, strain panel (AID 1159580);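 note: tested at 20 µM; growth read once vehicle control cultures reached saturation at 30 °C; 1 = growth at the plate median or of vehicle wells; lower values mean less growth of the strain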
testSettings: S. cerevisiae deletion strains, growth OD, locus YHR094C, strain hxt1, active compounds read low
The campaign covered roughly 5,500 compounds. About 2,000 (36%) were called active. Not shown: some 18% with an inconclusive outcome. The list shows a part of the results.
Readings of normalized growth for the listed compounds
observationType: normalized growth

{"compound": "CC(=O)NC1SCCC1=O (stereo not drawn)", "observationType": "normalized growth", "valueObserved": 1.02}
{"compound": "CS(=O)(=O)c1ccc(C2=C(c3ccccc3)C(=O)OC2)cc1", "observationType": "normalized growth", "valueObserved": 0.984}
{"compound": "CO[C@H]1[C@H](O)[C@H](O[C@H]2CC[C@]3(C)C4CC[C@]5(C)C(C6=CC(=O)OC6)CC[C@]5(O)C4CC[C@@H]3C2)O[C@@H](C)[C@@H]1O (stereo partly drawn)", "observationType": "normalized growth", "valueObserved": 1.01}
{"compound": "CN1CCCN=C1COC(=O)C(O)(c1ccccc1)C1CCCCC1 (stereo not drawn)", "observationType": "normalized growth", "valueObserved": 0.985}
{"compound": "CN(C)CC/C=C1\\c2ccccc2Sc2ccc(Cl)cc21", "observationType": "normalized growth", "valueObserved": 1.02}
{"compound": "CC(=O)N[C@@H](CC(C)C)C(=O)O", "observationType": "normalized growth", "valueObserved": 0.984}
{"compound": "O=C(O)C1(O)C[C@@H](O)C(O)[C@H](O)C1 (stereo partly drawn)", "observationType": "normalized growth", "valueObserved": 1.01}
{"compound": "CC(=O)OCC(=O)[C@@]1(O)CCC2C3CCC4=CC(=O)CC[C@]4(C)C3C(=O)C[C@@]21C (stereo partly drawn)", "observationType": "normalized growth", "valueObserved": 1.02}
{"compound": "C=Cc1c2[nH]c(c1C)C=c1[nH]c(c(C)c1C=C)=CC1N=C(C=c3[nH]c(c(C)c3CCC(=O)O)=C2)C(CCC(=O)O)=C1C (stereo not drawn)", "observationType": "normalized growth", "valueObserved": 0.996}
{"compound": "CC1/C(=N\\O)C[C@@H]2C[C@H]1C2(C)C (stereo partly drawn)", "observationType": "normalized growth", "valueObserved": 1.01}
{"compound": "C=C1C([C@]2(C)C(CC(=O)OC)[C@@](C)(COC(C)=O)OC(=O)C[C@@H]2OC(C)=O)[C@@H](OC=O)[C@H](OC(=O)C(O)C(C)CC)[C@@]2(C)[C@H](c3ccoc3)CC(=O)C12O (stereo partly drawn)", "observationType": "normalized growth", "valueObserved": 1.01}
{"compound": "COc1cc2c(cc1OC)C(=O)OC2", "observationType": "normalized growth", "valueObserved": 0.999}
{"compound": "COc1ccc2c(c1OC)C(=O)O[C@H]2[C@H]1c2cc3c(cc2CCN1C)OCO3", "observationType": "normalized growth", "valueObserved": 1.01}
{"compound": "CN(C)c1ccc(C(=C2C=CC(=[N+](C)C)C=C2)c2ccc(N(C)C)cc2)cc1", "observationType": "normalized growth", "valueObserved": 0.455}
{"compound": "CC1=C(C(C)O)C2=NC1C=c1[nH]c(c(C)c1C(C)O)=Cc1[nH]c(c(CCC(=O)O)c1C)C=c1[nH]c(c(C)c1CCC(=O)O)=C2 (stereo not drawn)", "observationType": "normalized growth", "valueObserved": 1.02}
{"compound": "C=C1C([C@]2(C)C(CC(=O)OC)[C@@](C)(COC(C)=O)OC(=O)C[C@@H]2OC(C)=O)[C@@H](OC=O)[C@H](OC(=O)C(OC(C)=O)C(C)CC)[C@@]2(C)[C@H](c3ccoc3)CC(=O)C12O (stereo partly drawn)", "observationType": "normalized growth", "valueObserved": 1.04}
{"compound": "CCN(CC)CCCC(C)Nc1c2ccc(Cl)cc2nc2ccc(OC)cc12 (stereo not drawn)", "observationType": "normalized growth", "valueObserved": 0.796}
{"compound": "CCN(CCO)CCCC(C)Nc1ccnc2cc(Cl)ccc12 (stereo not drawn)", "observationType": "normalized growth", "valueObserved": 1.01}
